- experimental_system: T1, recombinant hCTLA-4-mFc (human CTLA-4 extracellular domain with a C-terminal Fc portion of mouse IgG2a) (human)
- T1 construct: also called dimeric CTLA-4 protein
- T1 sequence (chain, as listed by the source limits assumed): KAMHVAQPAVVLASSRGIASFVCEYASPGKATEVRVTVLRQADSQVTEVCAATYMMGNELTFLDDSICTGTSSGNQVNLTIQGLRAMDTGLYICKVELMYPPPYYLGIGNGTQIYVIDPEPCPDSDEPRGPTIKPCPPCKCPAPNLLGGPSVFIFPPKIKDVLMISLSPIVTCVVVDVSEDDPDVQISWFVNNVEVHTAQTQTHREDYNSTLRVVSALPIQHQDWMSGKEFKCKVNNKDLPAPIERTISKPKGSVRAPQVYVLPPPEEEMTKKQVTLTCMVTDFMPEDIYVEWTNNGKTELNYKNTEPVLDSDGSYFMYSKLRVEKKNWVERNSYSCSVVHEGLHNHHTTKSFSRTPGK
- procedure_details: competition ELISA, 400 pM hCTLA-4-mFc on plate-coated hB7-2-hIgG1-6His
attribute_measured: pIC50
Answers are plain numbers, as −log10 of the molar value.

Example binders with recorded pIC50:
- binder: "H1H19305P (antibody, human IgG1, V domains shown) VH: QVQLQESGPGLVKPSQTLSLTCTVSGGSITSGGYYWSWIRQHPGKGLEWIGYIFYSGITNYNPSLKSRVTISVDTSKNQFSLKLTSVTAADTAVYYCATYNSLRLYYGMDVWGQGTTVTVSS VL: DVVMTQSPLSLPVILGQPASISCRSSQSLVYGDGNTYLNWFQQRPGQSPRRLIYKVSNRDSGVPDRFSGSGSGTDFTLKISRVEAEDVGVYYCMQSTHWPLTFGGGTKVEIK"
  pIC50: 9.44
- binder: "H1H19278P (antibody, human IgG1, V domains shown) VH: QVQLVESGGGVVQPGRSLRLSCAASGFTFSSYGMNWVRQAPGKGLEWVAVTWYDGSNKHYADSVKGRFTISRDNSKNTLYLQMYSLRAEDTAMYYCVRGGHLGAFDIWGQGTMVTVSS VL: EIVLTQSPGTLSLSPGERATLSCRASQSVSSYLAWYQQKPGQAPRLLIYGASSRATGIPDRFSGGGSGTDFTLTISRLEPEDFAVYYCQQYGSSPFTFGPGTKVDIK"
  pIC50: 9.27
- binder: "H1H19274P (antibody, human IgG1, V domains shown) VH: QVQLQESGPGLVKPSETLSLTCTVSGGSINSYYWTWIRQPPGKGLEWIGYVYYSGSTTYNPSLKSRVTISVDTSKNQFFLNLNSVTAAETAVYYCARGTLGYYGMDVWGQGTTVTVSS VL: EIVLTQSPGTLSLSPGERATLSCRASQSFSNNYLAWYQQKPGQAPRLLIYGTSIRATGIPDRFSGSGSGTDFTLAISRLEPEDFAVYYCQQYGRSPLTFGGGTKVEIK"
  pIC50: 9.60

Parameter requested: pIC50. Apply to each item below.
1. H1H19273P (antibody, human IgG1, V domains shown) VH: QITLKESGPTLVKPTQTLTLTCTFSGFSLSTSGVGVGWIRQSPGRALEWLALIYWNDHERYSPSLKSRLTITKDTSKNLVVLAMANMDPVDTATYFCAHRNIEYRRSYFFDYWGQGTLVTVSS VL: DIQMTQSPSSVSASVRDRVTVTCRASQDINNWLAWYQQKPGKAPKLLIYAASSLQSGVPSRFSGSGSGTDFTLTISSLQPEDFATYYCQQANTFPFTFGPGTKVDIK
2. H1H20386N (antibody, human IgG1, V domains shown, here with human IgG1 Fc (H1H)) VH: QVQLVESGGGVVQPGRSLRLSCAASGFTVNRYGIHWVRQAPGKGLEWVAVTWYDGRNKYFADSVKGRFSFSRDSSTNTLYLQMNSLRAEDTAVYYCARGGLFGYFDYWGQGTLVTVSS VL: EIVLTQSPDTLSLSPGERATLSCRASQSVAGSYLAWYQQKPGQAPRLLIYGASSRATGIPDRFSGSGSGTDFTLTISRLEPEDFAVYYCQQYGTSPWTFGQGTKVEIT
3. H1H20370N (antibody, human IgG1, V domains shown, here with human IgG1 Fc (H1H)) VH: QVQLHESGPGLVKPSQTLSLTCSVSGGSISNGGYYWSWIRQHPGQGLEWIGYIYYIGNTYYNPSLESRVTMSIDTSKNQFSLKLSSVTAADTAIYYCARQEFVPGAEYFLHWGQGILVTVSS VL: DIRMTQSPSSLSASVGDRVTITCRASQTVNTFLNWYQQKPGKAPKLLIFGASSLQSGVPSRFSGSGSGTDFTLTISGLQPEDFAIYYCQQSYSVPPITFGQGTRLEIE
4. H1H19291P (antibody, human IgG1, V domains shown) VH: QVQLVESGGGVVQPGRSLRLSCAASGFTFSTYGMHWVRQAPGKGLEWVTVIWYDGNNKYYADSVKGRFTISRDNSKNTLYLQMNNLRAEDTALYYCARGGGRLSYYHDYWGQGTLVTVSS VL: DIQMTQSPSSLSASVGDRVTITCRASQSISTFLNWYQQKPGKAPNLLIYGTSSLQSGVPSRFSGSGSGTDFTLTISSLQPEDFAAYYCQQTYSTPFTFGPGTKVDIK

[9.27, 8.11, 9.00, 8.60]

This collection of values is drawn from patent US20210040232A1.
